Source of measurements: patent US9480259B2

What pEC50 was measured for each of the following?
Target: Arabidopsis thaliana SHMT
Test: SHMT activity assay (ED50 SHMT), coupled with N5,N10-CH2-THF dehydrogenase, NADH at 340 nm
Assay type: biochemical
Conditions: Table 2; values given as upper bounds
pEC50: −log10 of the molar value.

Lookup result for Cc1n[nH]c2c1C(c1cccc(Cl)c1)(C(C)C)C(C#N)=C(N)O2 (stereo not shown) ; measured pEC50: > 7.00

Consider Cc1n[nH]c2c1C(c1cc(Cl)cc(CC#N)c1)(C1CCC1)C(C#N)=C(N)O2 (stereo not shown) . Its measured pEC50 is > 8.00

Form field pEC50, entry CCc1n[nH]c2c1C(CC)(c1cc(Cl)cc(Cl)c1)C(C#N)=C(N)O2 (stereo not shown) : > 6.00

Form: compound = CCC1(c2ccc(NC(=O)OC)cc2)C(C#N)=C(N)Oc2[nH]nc(C)c21 (stereo not shown) ; pEC50 = > 6.00

Reported pEC50 for Cc1n[nH]c2c1C(CC(C)C)(c1ccc(Cl)c(Cl)c1)C(C#N)=C(N)O2 (stereo not shown) was > 6.00

Form field pEC50, entry CCC1(c2ccc(OS(=O)(=O)c3ccc(Cl)c(Cl)c3)c(C)c2)C(C#N)=C(N)Oc2[nH]nc(C)c21 (stereo not shown) : > 5.00

Data point: COC(=O)c1cc(-c2cc(C#N)cc(C3(C4CCC4)C(C#N)=C(N)Oc4[nH]nc(C)c43)c2)cc([N+](=O)[O-])c1 (stereo not shown) ; pEC50 = > 8.00

* * *

Target: Arabidopsis thaliana SHMT
Test: SHMT activity assay (ED50 SHMT), coupled with N5,N10-CH2-THF dehydrogenase, NADH at 340 nm
Assay type: biochemical
Conditions: Table 2; values given as upper bounds
MEASUREMENT NAME: EC50

Item: Cc1n[nH]c2c1C(c1cc(Cl)cc(Cl)c1)(C1CC1)C(C#N)=C(N)O2 (stereo not shown) | EC50: < 1 µM

Given item CCC1(c2cc(Cl)cc(Cl)c2)C(C#N)=C(N)Oc2[nH]ncc21 (stereo not shown) , the value recorded as its EC50 is < 10 µM

Reported EC50 of Cc1n[nH]c2c1C(c1ccc(Cl)cc1)(C(C)C)C(C#N)=C(N)O2 (stereo not shown) : < 1 µM

response.value for CCC1(c2cccc(C(F)(F)F)c2)C(C#N)=C(N)Oc2[nH]nc(C)c21 (stereo not shown) (field: EC50) = < 1 µM

// EC50 lookup, compound = CCCc1n[nH]c2c1C(c1ccc(Cl)cc1)(C1CC1)C(C#N)=C(N)O2 (stereo not shown) , result: < 0.1 µM

The reported value for CCC1(c2cc(F)c(F)c(F)c2)C(C#N)=C(N)Oc2[nH]nc(C)c21 (stereo not shown) in terms of EC50 is < 1 µM

# EC50 (compound: Cc1n[nH]c2c1C(CCC#N)(c1cccc(Cl)c1)C(C#N)=C(N)O2 (stereo not shown) ) is < 10 µM

EC50 for CCC1(c2cc(C(F)(F)F)cc(C(F)(F)F)c2)C(C#N)=C(N)Oc2[nH]nc(CCC(F)F)c21 (stereo not shown) is < 1 µM

Per the record, Cc1n[nH]c2c1C(c1cc(Cl)cc(Cl)c1)(C(C)C)C(C#N)=C(N)O2 (stereo not shown) has EC50 of < 0.01 µM

Value of EC50 reported for the compound CCC1(c2ccc(OS(=O)(=O)Cc3ccccc3)c(C)c2)C(C#N)=C(N)Oc2[nH]nc(C)c21 (stereo not shown) is < 1 µM

GET /value?item= CC(=O)N(C)c1cc(C#N)cc(C2(C3(F)CC3)C(C#N)=C(N)Oc3[nH]nc(C)c32)c1 (stereo not shown) &field=EC50 returns < 0.01 µM

// field: EC50; key: CC(C)C1(c2cc(Cl)cc(Cl)c2)C(C#N)=C(N)Oc2[nH]nc(C3CC3)c21 (stereo not shown) ; value = < 0.1 µM

Recorded result, CCCC1(c2cc(Cl)cc(C#N)c2)C(C#N)=C(N)Oc2[nH]nc(OC)c21 (stereo not shown) , EC50: < 10 µM

For CCc1n[nH]c2c1C(c1cccc(C(F)(F)F)c1)(C1CCC1)C(C#N)=C(N)O2 (stereo not shown) the compound record lists EC50 as < 0.1 µM

Sure, the documented EC50 for COc1ccc(C2(C3CC3)C(C#N)=C(N)Oc3[nH]nc(C)c32)cc1Cl (stereo not shown) is < 0.1 µM

Reported EC50 ( CCCC1(c2cc(C#N)cc(C(F)(F)F)c2)C(C#N)=C(N)Oc2[nH]nc(OC)c21 (stereo not shown) ) = < 1 µM

* * *

Assign pEC50 to each entry below.
Molecular target: Arabidopsis thaliana SHMT
Experiment: SHMT activity assay (ED50 SHMT), coupled with N5,N10-CH2-THF dehydrogenase, NADH at 340 nm
Assay type: biochemical
Details: Arabidopsis thaliana SHMT enzyme assay; values given as upper bounds
pEC50: −log10 of the molar value.

Entry under test: Cc1n[nH]c2c1C(c1cc(C#N)cc(N(C)C(=O)c3ccc(C(=O)O)cc3)c1)(C(C)C)C(C#N)=C(N)O2 (centres unmarked) . Its pEC50 was > 7.00

Quick note, pEC50 for Cc1n[nH]c2c1C(c1cc(C#N)cc(N(C)S(=O)(=O)CC(=O)O)c1)(C(C)C)C(C#N)=C(N)O2 (centres unmarked) landed at > 7.00

Note to self: pEC50 recorded for COC(=O)CCS(=O)(=O)N(C)c1cc(C#N)cc(C2(C(C)C)C(C#N)=C(N)Oc3[nH]nc(C)c32)c1 (centres unmarked) was > 7.00

Just so you know, measured pEC50 for COC(=O)c1ccc(-c2cc(C#N)cc(C3(C(C)C)C(C#N)=C(N)Oc4[nH]nc(C)c43)c2)o1 (centres unmarked) came out at > 8.00

Value of pEC50 reported for the molecule Cc1n[nH]c2c1C(c1cc(C#N)cc(NS(C)(=O)=O)c1)(C1CCC1)C(C#N)=C(N)O2 (centres unmarked) is > 7.00

Summary for this molecule, COC(=O)c1csc(-c2cc(C#N)cc(C3(C4CCC4)C(C#N)=C(N)Oc4[nH]nc(C)c43)c2)c1 (centres unmarked) : pEC50 is > 8.00

What the record says about Cc1n[nH]c2c1C(c1cc(Cl)cc(Cl)c1)(C1CC(F)C1)C(C#N)=C(N)O2 (centres unmarked) : pEC50 is > 8.00

// pEC50 value for Cc1n[nH]c2c1C(c1ccc(CCCC#N)c(Cl)c1)(C1CCC1)C(C#N)=C(N)O2 (centres unmarked) : > 8.00

Recorded result, Cc1n[nH]c2c1C(c1cccc(Br)c1)(C(C)(F)F)C(C#N)=C(N)O2 (centres unmarked) , pEC50: > 7.00

Just so you know, measured pEC50 for Cc1n[nH]c2c1C(c1cc(-c3nnn[nH]3)cc(N(C)CCC#N)c1)(C1CCC1)C(C#N)=C(N)O2 (centres unmarked) came out at > 6.00

The recorded pEC50 for entry Cc1n[nH]c2c1C(c1cc(C#N)cc(N(C)C(=O)CCc3nnn[nH]3)c1)(C1CCC1)C(C#N)=C(N)O2 (centres unmarked) equals > 7.00

Measured pEC50, Cc1n[nH]c2c1C(c1cc(Cl)cc(N(C)C(=O)CCC#N)c1)(C1CCC1)C(C#N)=C(N)O2 (centres unmarked) : > 7.00

Reported pEC50 ( Cc1n[nH]c2c1C(c1ccc(CCc3nnn[nH]3)c(C#N)c1)(C(C)C)C(C#N)=C(N)O2 (centres unmarked) ) = > 7.00

Lab book: pEC50 of Cc1n[nH]c2c1C(c1cc(Cl)cc(SCC#N)c1)(C1CCC1)C(C#N)=C(N)O2 (centres unmarked) noted as > 8.00

pEC50 in this record for Cc1n[nH]c2c1C(c1cc(C#N)cc(N(C)C(=O)CCC#N)c1)(C(C)C)C(C#N)=C(N)O2 (centres unmarked) : > 8.00

For record Cc1n[nH]c2c1C(c1cc(C#N)cc(-c3cc(C(=O)O)cs3)c1)(C1CCC1)C(C#N)=C(N)O2 (centres unmarked) the listed pEC50 is > 8.00

# pEC50 of COCC(=O)N(C)c1cc(C#N)cc(C2(C(C)C)C(C#N)=C(N)Oc3[nH]nc(C)c32)c1 (centres unmarked) = > 8.00

Reported pEC50 ( Cc1n[nH]c2c1C(c1cc(-c3nnn[nH]3)cc(N(C)C(=O)CCC#N)c1)(C1CCC1)C(C#N)=C(N)O2 (centres unmarked) ) = > 7.00

molecule CCOC(=O)CCCN(C)c1cc(C#N)cc(C2(C3CCC3)C(C#N)=C(N)Oc3[nH]nc(C)c32)c1 (centres unmarked) , pEC50 observed: > 8.00

Reported pEC50 of Cc1n[nH]c2c1C(c1cc(C#N)cc(N(C)C(=O)Cc3nnn[nH]3)c1)(C(C)C)C(C#N)=C(N)O2 (centres unmarked) : > 7.00

Sample COC(=O)c1ccc(-c2cc(C#N)cc(C3(C(C)C)C(C#N)=C(N)Oc4[nH]nc(C)c43)c2)s1 (centres unmarked) ; pEC50 observed: > 8.00

pEC50 measured on Cc1n[nH]c2c1C(c1cc(C#N)cc(-c3ccc(C(=O)O)s3)c1)(C1(F)COC1)C(C#N)=C(N)O2 (centres unmarked) = > 6.00

The molecule identified as Cc1n[nH]c2c1C(c1cc(C#N)cc(N(C)C(=O)CCCc3nnn[nH]3)c1)(C1CCC1)C(C#N)=C(N)O2 (centres unmarked) registered its pEC50 at > 7.00

Briefly, pEC50 measured for COC(=O)c1ccc(-c2cc(C#N)cc(C3(C4(F)COC4)C(C#N)=C(N)Oc4[nH]nc(C)c43)c2)s1 (centres unmarked) : > 7.00

The measured pEC50 associated with Cc1n[nH]c2c1C(c1cc(C#N)cc(N(C)C(=O)c3cccc(C(=O)O)c3)c1)(C(C)C)C(C#N)=C(N)O2 (centres unmarked) reads > 7.00

Briefly, pEC50 measured for Cc1n[nH]c2c1C(c1cc(C#N)cc(N(C)S(=O)(=O)CC(=O)O)c1)(C1CCC1)C(C#N)=C(N)O2 (centres unmarked) : > 7.00
